From: PubChem BioAssay (NCATS)

Can you tell me Potency for the items I'm about to list?
Measurement description: BET inhibitor-based combinations targeting novel dependencies in MECOM-rearranged (r) AML: SET-2 cell line (AID 2202231); further: potency means the concentration at half of the fitted maximal effect; nearly all actives have a fitted effect of over 35% in size
Assay context: SET-2 AML cells viability, CellTiter-Glo luminescence, 48 h
Records with an inconclusive call do not appear. Active and inactive are the calls of the source. The call rests on the fitted dose curve; in most records, active means well fitted inhibition curve with a large enough effect; inconclusive means small, poorly fitted or top-dose-only effect; inactive means no such curve, though single readings can be large or run the other way.

Noted for `CC1=C(O)C(=O)C=C2C1=CC=C1[C@@]2(C)CC[C@@]2(C)[C@@H]3C[C@](C)(C(=O)O)CC[C@]3(C)CC[C@]12C` : its Potency reads 934 nM (active)

Noted for COC[C@H]1OC(=O)c2coc3c2[C@@]1(C)C1=C(C3=O)C2CCC(=O)[C@@]2(C)C[C@H]1OC(C)=O (some centres not stated) : its Potency reads 18600 nM (active)

Noted for `C/C=C(/C)C(=O)O[C@H]1C(C)=C2[C@H]([C@@H]1OC(=O)CCCCCCC)[C@@](C)(OC(C)=O)C[C@H](OC(=O)CCC)[C@@]1(O)[C@H]2OC(=O)[C@@]1(C)O` : its Potency reads 263 nM (active)

Noted for `O=c1[nH]c2ccc(Cl)cc2c(N[C@@H]2CN3CCC2CC3)c1-c1nc2ccccc2[nH]1` : its Potency reads 332 nM (active)

Noted for `CC(C)(O)C(=O)Nc1ccc([N+](=O)[O-])c(C(F)(F)F)c1` : its Potency reads 23500 nM (active)

Noted for `CCNC(=O)C[C@@H]1N=C(c2ccc(Cl)cc2)c2cc(OC)ccc2-n2c(C)nnc21` : its Potency reads 2630 nM (active)

Noted for `C[C@@H]1CC[C@@]2(OC1)O[C@H]1C[C@H]3[C@@H]4CC=C5C[C@@H](O[C@@H]6O[C@H](CO)[C@@H](O[C@@H]7O[C@@H](C)[C@H](O)[C@@H](O)[C@H]7O)[C@H](O)[C@H]6O[C@@H]6O[C@@H](C)[C@H](O)[C@@H](O)[C@H]6O)CC[C@]5(C)[C@H]4CC[C@]3(C)[C@H]1[C@@H]2C` : its Potency reads 8330 nM (active)

Noted for N=c1c2c(-c3ccccc3)c(-c3ccccc3)n(Cc3ccccc3)c2ncn1C1CCC(O)CC1 (configuration not stated) : its Potency reads 1320 nM (active)

Noted for `CCN1CCN(C(=O)Cc2ccc(Nc3ncc(F)c(Nc4ccc(C(=O)Nc5ccccc5Cl)cc4)n3)cc2)CC1` : its Potency reads 5250 nM (active)

Noted for `C[C@@]12OC(=O)[C@]1([C@@H](O)[C@@H]1C=CCCC1)NC(=O)[C@@H]2CCCl` : its Potency reads 26.3 nM (active)

Noted for `C/C1=C/C[C@@H](/C(C)=C/c2csc(C)n2)OC(=O)C[C@H](O)C(C)(C)C(=O)[C@H](C)[C@@H](O)[C@@H](C)CCC1` : its Potency reads 93.4 nM (active)

Noted for `CC1(C)C(=O)N(c2ccc(C#N)c(C(F)(F)F)c2)C(=S)N1Cc1ccc(-c2cn[nH]n2)cc1` : its Potency reads 16600 nM (active)

Noted for `C/C(=C\c1csc(C)n1)[C@@H]1C[C@@H]2O[C@]2(C)CCC[C@H](C)[C@H](O)[C@@H](C)C(=O)C(C)(C)[C@@H](O)CC(=O)O1` : its Potency reads 18.6 nM (active)

Noted for `Cn1c(CCCCCCC(=O)NO)nc2cc(N(CCCl)CCCl)ccc21` : its Potency reads 2630 nM (active)

Noted for `CC(=O)OC[C@H]1O[C@@H]([S-])[C@H](OC(C)=O)[C@@H](OC(C)=O)[C@@H]1OC(C)=O.CC[PH+](CC)CC.[Au]` : its Potency reads 1180 nM (active)

Noted for `CC[C@H]1/C=C\C=C/C[C@@H](C)[C@H](O)[C@@](C)(O)C(=O)[C@@H](C)[C@H](O)[C@@H](C)C(=O)[C@@H](C)[C@H](O)[C@@H](C)/C=C\C(=O)O[C@@H]2[C@H](C)[C@H](CC1)O[C@]1(CC[C@H](C)[C@H](C[C@@H](C)O)O1)[C@H]2C` : its Potency reads 4170 nM (active)

Noted for Cc1sc2c(c1C)C(c1ccc(Cl)cc1)=NC(CC(=O)Nc1ccc(O)cc1)c1nnc(C)n1-2 (configuration not stated) : its Potency reads 1320 nM (active)

Noted for `CC(C)(O)/C=C\C(=O)[C@](C)(O)[C@H]1[C@H](O)C[C@]2(C)[C@@H]3CC=C4[C@@H](C=C(O)C(=O)C4(C)C)[C@]3(C)C(=O)C[C@@]12C` : its Potency reads 1660 nM (active)

Noted for COc1cccc2c1C(=O)c1c(O)c3c(c(O)c1C2=O)C[C@@](O)(C(=O)CO)CC3OC1CC(N2CCOC(OC)C2)C(O)C(C)O1 (some centres not stated) : its Potency reads 3.3 nM (active)

Noted for `Cc1[nH]nc2ccc(-c3cncc(OC[C@@H](N)Cc4c[nH]c5ccccc45)c3)cc12` : its Potency reads 1050 nM (active)

Noted for `O=C(CBr)N1CC([N+](=O)[O-])([N+](=O)[O-])C1` : its Potency reads 38200 nM (active)

Noted for C[C@H]1CCC/C=C/C2C[C@H](O)C[C@H]2[C@H](O)/C=C/C(=O)O1 (some centres not stated) : its Potency reads 332 nM (active)
